Each entry below lists one item and its recorded change of melting temperature, mutant - wild type (higher = more stable) value.
B1: Ribonuclease pancreatic, P61823 (parent)
chain: MALKSLVLLSLLVLVLLLVRVQPSLGKETAAAKFERQHMDSSTSAASSSNYCNQMMKSRNLTKDRCKPVNTFVHESLADVQAVCSQKNVACKNGQTNCYQSYSTMSITDCRETGSSKYPNCAYKTTQANKHIIVACEGNPYVPVHFDASV

- Variants of: B1
- RUN PARAMETERS: Bos taurus; pH 4.2; Thermal; CD; Sodium acetate 0.01 M; NaCl 0.1 M; reversible: yes; structure 1RTB; whole UniProt chain shown
Your answer should be a number followed by the unit of measure.

MUTATION NOTATION | REPORTED RESULT
P119A P140G | -20 °C
P140G | -10.5 °C
P119A | -9.5 °C
P140A | -10.5 °C

Exercise: Reported change of melting temperature, mutant - wild type (higher = more stable) for P119S : what is it?
Key: -8.5 °C
